Kindly supply the reported IC50 values for the records listed here.
target of assay: HLA-A*6802 (Homo sapiens, UniProt P04439, A269V/D140Y/D185E/E176V/E277Q/E87N/F33Y/G231S/I121R/I166T/I218V/L180W/L300P/L318F/N151K/P208A/P217A/Q86R/R138H/R169H/S129P/T345S/V36M)
assay: purified HLA class I binding assay, A*6802
Unit µM implied. Number only.

INPUT: Find the recorded IC50 belonging to CC[C@H](C)[C@H](NC(=O)[C@H](Cc1ccccc1)NC(=O)[C@H](CC(C)C)NC(=O)[C@H](CC(C)C)NC(=O)[C@H](CCC(N)=O)NC(=O)[C@H](CCC(N)=O)NC(=O)[C@H](CC(C)C)NC(=O)[C@@H](NC(=O)[C@@H](N)CCCNC(=N)N)[C@@H](C)CC)C(=O)O [Peptide 1261.12] and report it.
OUTPUT: 1.82

INPUT: Which IC50 value is on record for CC[C@H](C)[C@H](NC(=O)[C@H](CC(=O)O)NC(=O)[C@@H](NC(=O)[C@H](C)NC(=O)[C@H](CC(N)=O)NC(=O)[C@H](CC(C)C)NC(=O)[C@H](CC(C)C)NC(=O)[C@@H](N)CO)[C@@H](C)O)C(=O)N[C@@H](C)C(=O)N[C@H](C(=O)O)C(C)C [Peptide 1211.09] ?
OUTPUT: 5.48

INPUT: Give the measured IC50 of CC[C@H](C)[C@H](NC(=O)[C@@H]1CCCN1C(=O)[C@@H]1CCCN1C(=O)[C@H](CC(N)=O)NC(=O)[C@H](CC(N)=O)NC(=O)[C@@H](NC(=O)[C@@H](N)CCSC)[C@@H](C)O)C(=O)N1CCC[C@H]1C(=O)N[C@H](C(=O)O)C(C)C [Peptide 1261.03] .
OUTPUT: 0.0121

###

Field: IC50. Provide a value for each of the sequences that follow.
target of assay: HLA-B*3501 (Homo sapiens, UniProt P01889, A329T/A93T/A95T/C349S/D201E/D98Y/E176V/E187L/E204Q/E69T/I218V/K202T/L119I/Q94N/R155S/R180L/S121R/S35A/S48A/T118I/V127L/V306I/V36M/Y140S/Y91F)
assay: purified HLA class I binding assay, B*3501
No end group written: not given here.
Report only the number, with the unit µM understood.

INPUT: # get_value(readout='IC50', item= FPISPIETV [Peptide 1261.01] )
OUTPUT: 1.04

INPUT: What measured IC50 goes with VPLQLPPL [29.0028] ?
OUTPUT: 6

INPUT: # get_value(readout='IC50', item= CPKVSFEPI [1296.02] )
OUTPUT: 5.14

INPUT: Would you mind telling me what IC50 value was observed for IPYNPQSQGVV [1296.03] ?
OUTPUT: 72

INPUT: // query IC50 value for entry HPVHAGPIA [1292.13]
OUTPUT: 0.0116

###

target of assay: HLA-A*1101 (Homo sapiens, UniProt P04439, A114D/D185E/E176A/F33Y/L180Q/S129P/T187R)
assay: purified HLA class I binding assay, A*1101
experimental conditions: HIV A03 supermotif peptides, Table IX; unit not given
Task for the reader: assign each of the following sequences its reported A*1101 (binding information).
Hey, just send me the number, nothing else.

INPUT: Notebook: pull reported A*1101 (binding information) for HLA-A*1101 (Homo sapiens, UniProt P04439, A114D/D185E/E176A/F33Y/L180Q/S129P/T187R), entry TVQCTIIGIK
OUTPUT: 0.0460

INPUT: Provide value of A*1101 (binding information) for this record tested with HLA-A*1101 (Homo sapiens, UniProt P04439, A114D/D185E/E176A/F33Y/L180Q/S129P/T187R): QARYLAVER
OUTPUT: 0.0003

INPUT: What reported A*1101 (binding information) corresponds to ATLYCVIIQR on HLA-A*1101 (Homo sapiens, UniProt P04439, A114D/D185E/E176A/F33Y/L180Q/S129P/T187R)?
OUTPUT: 0.7100

INPUT: GET /values?readout=A*1101 (binding information)&system=HLA-A*1101 (Homo sapiens, UniProt P04439, A114D/D185E/E176A/F33Y/L180Q/S129P/T187R)&item= TVQCTIIGIR
OUTPUT: 0.0008

INPUT: Report A*1101 (binding information) for LLQLIVWGIK tested on HLA-A*1101 (Homo sapiens, UniProt P04439, A114D/D185E/E176A/F33Y/L180Q/S129P/T187R).
OUTPUT: 0.0110

INPUT: # value lookup — system HLA-A*1101 (Homo sapiens, UniProt P04439, A114D/D185E/E176A/F33Y/L180Q/S129P/T187R), readout A*1101 (binding information), item YVDRIFYKTLR
OUTPUT: 0.0006

INPUT: // map QMVIIQAISPR to recorded A*1101 (binding information) (system: HLA-A*1101 (Homo sapiens, UniProt P04439, A114D/D185E/E176A/F33Y/L180Q/S129P/T187R))
OUTPUT: 0.0010

###

Could you please report measured A*0301 binding information for the items listed next?
target of assay: HLA-A*0301 (Homo sapiens, UniProt P04439)
Construct: endogenous in cells; host or cells: GM3107
assay: purified HLA class I binding assay, A*0301
experimental conditions: HIV A03 supermotif peptides; binding value, no unit given
Reply: number alone, nothing else.

INPUT: Can you share its A*0301 binding information? I mean this sequence: KLTEERWNK
OUTPUT: 0.0130

INPUT: Quick check: A*0301 binding information of QIYQEPPKNLK ?
OUTPUT: 0.2800

INPUT: // query A*0301 binding information value for entry KVYLAWVPAIIK
OUTPUT: 8.6000

INPUT: State the recorded A*0301 binding information for this entry: IVASCDKCQLK
OUTPUT: 0.0970

###

target of assay: HLA-DRB5*0101 (DR2w2β2) (Homo sapiens, UniProt P01903+Q30154)
Construct: expressed in transfected cells
assay: biochemical
Type: binding
Assign labels as follows, please: condition met for DR2w2β2 binding below 0.03; condition not met for DR2w2β2 binding equal to or exceeding 0.03.

INPUT: Is DR2w2β2 binding of VIFMFSALSEGATPQ strictly below 0.03?
OUTPUT: condition met

INPUT: Item SPEVIFMFSALSEGA : DR2w2β2 binding beneath 0.03, strictly?
OUTPUT: condition met

INPUT: Report whether reported DR2w2β2 binding is lower than 0.03 (strictly) for QQHLLQLTVWGTKQL
OUTPUT: condition not met

INPUT: DR2w2β2 binding under 0.03? Item: VTVYYGVPVWKEATI
OUTPUT: condition met

INPUT: Hello, is DR2w2β2 binding of the following sequence strictly smaller than 0.03? ASGYIEAEVIPAFTG
OUTPUT: condition met

###

target of assay: HLA-A*3101 (Homo sapiens, UniProt P04439, A270S/D185E/E176V/E277Q/F33T/G231S/G80R/H175R/I121M/I218V/I322F/K168Q/L300P/L318F/M331R/P217A/Q94H/R138Q/T323A/T345S/T97I/V358M)
assay: purified HLA class I binding assay, A*3101
No end group written: not given here.
Task for the reader: assign each of the following sequences its reported pIC50.
Scale for pIC50: -log10 of concentration given in mol/L; no unit attached.

INPUT: Form field: reported pIC50 of KIQNFRVYYR [1211.32]
OUTPUT: 8.57

INPUT: For the sequence shown here, TTLFCASDAK [1273.07] , give the reported pIC50.
OUTPUT: 5.02

INPUT: Fill in: pIC50 of NTPVFAIKK [1273.02] is ___
OUTPUT: 4.52

INPUT: Quick one: pIC50 of TIKIGGQLK [1273.05] ?
OUTPUT: 4.74

INPUT: # input sequence: IVIWGKTPK [1193.0200] ; wanted: its pIC50
OUTPUT: 7.74

INPUT: pIC50 for VMIVWQVDR [Peptide 1273.08] ?
OUTPUT: 8.42

INPUT: Would you kindly share the measured pIC50 for TLFCASDAK [1273.06] ?
OUTPUT: 4.98

INPUT: # query: pIC50 of entry KLAGRWPVK [1069.44]
OUTPUT: 6.30

###

Please provide measured A*6801 binding information for the entries that follow.
target of assay: HLA-A*6801 (Homo sapiens, UniProt P04439, A269V/D185E/E176V/E277Q/E87N/F33Y/G231S/I121M/I166T/I218V/L180W/L300P/L318F/N151K/P208A/P217A/Q86R/R169H/T345S)
assay: purified HLA class I binding assay, A*6801
experimental conditions: Table IX, HIV A03 super motif peptides; binding value, unit not given

INPUT: // lookup A*6801 binding information for WMGYELIIPDK
OUTPUT: 0.0003

INPUT: I would be grateful if you could share the reported A*6801 binding information for GIPHPAGLK .
OUTPUT: 0.0110

INPUT: Any idea what its A*6801 binding information is? The sequence is ASCDKCQLK
OUTPUT: 0.0001

INPUT: Name the recorded A*6801 binding information for DIQIKELQK .
OUTPUT: 0.0001

INPUT: // lookup A*6801 binding information for FTTPDKKIIQK
OUTPUT: 0.0273

INPUT: Need A*6801 binding information, item YLAWVPAIIK
OUTPUT: 4.0000
